# TEST_METHOD_NOTES: log P by HPLC on a reversed-phase column (C 18), EEC Directive 79/831 Annex V.A8
# Format: physicochemical
# TEST_CONTEXT: reversed-phase HPLC column (C 18); acidic range, pH 2.7, 0.1% aqueous formic acid/acetonitrile, 55° C.; read-out: LOGP_HCOOH
Below, each entry is listed alongside its reported chromatographic logP.

{"STRUCTURE_SMILES": "CCSc1c(-c2nc3cc(C(F)(F)F)cnc3o2)nc2ccccn12", "chromatographic logP": 3.2}
{"STRUCTURE_SMILES": "CCSc1c(-c2nc3cc(C(F)(F)F)ncc3n2C)nc2ccccn12", "chromatographic logP": 2.84}
{"STRUCTURE_SMILES": "CCS(=O)(=O)c1c(-c2nc3cc4c(cc3n2C)OC(F)(F)O4)nc2ccccn12", "chromatographic logP": 2.59}
{"STRUCTURE_SMILES": "CCS(=O)(=O)c1c(-c2nc3cc4c(cc3[nH]2)OC(F)(F)O4)nc2ccccn12", "chromatographic logP": 2.51}

----------
# TEST_METHOD_NOTES: log P by HPLC on a reversed-phase column (C 18), EEC Directive 79/831 Annex V.A8
# Format: physicochemical
# TEST_CONTEXT: acidic range, pH 2.7, 0.1% aqueous formic acid/acetonitrile, 55° C.
Please note: T applies when LOGP_HCOOH is 3 or greater, and F applies otherwise.

{"COMPOUND": "CCSc1cccc2nc(-c3nc4cc(C(F)(F)F)ccc4n3C)c(SCC)n12 [Example I-31]", "ASSIGNED_CATEGORY": "T"}
{"COMPOUND": "CCSc1c(-c2nc3cc(C(F)(F)F)ncc3n2C)nc2c(Cl)cccn12 [Example I-14]", "ASSIGNED_CATEGORY": "T"}
{"COMPOUND": "CCS(=O)(=O)c1c(-c2nc3cc(C(F)(F)F)cnc3o2)nc2ccccn12 [Example I-44]", "ASSIGNED_CATEGORY": "F"}
{"COMPOUND": "CCSc1c(-c2nc3cc(C(F)(F)F)ccc3n2C)nc2ccccn12 [Example I-9]", "ASSIGNED_CATEGORY": "T"}
{"COMPOUND": "CCS(=O)(=O)c1c(-c2nc3cc(C(F)(F)F)ncc3n2C)nc2ccccn12 [Example I-1]", "ASSIGNED_CATEGORY": "F"}
{"COMPOUND": "CCSc1c(-c2nc3cc(C(F)(F)F)ncc3n2C)nc2cc(C(F)(F)F)ccn12 [Example I-16]", "ASSIGNED_CATEGORY": "T"}
{"COMPOUND": "CCS(=O)(=O)c1c(-c2nc3cc(C(F)(F)F)ncc3n2C)nc2c(Cl)cccn12 [Example I-19]", "ASSIGNED_CATEGORY": "F"}
{"COMPOUND": "CCS(=O)(=O)c1c(-c2nc3cc(C(F)(F)F)cnc3o2)nc2ccc(C(F)(F)F)cn12 [Example I-47]", "ASSIGNED_CATEGORY": "T"}
{"COMPOUND": "CCS(=O)(=O)c1c(-c2nc3cc(C(F)(F)F)ncc3n2C)nc2ccc(OC)cn12 [Example I-54]", "ASSIGNED_CATEGORY": "F"}
{"COMPOUND": "CCS(=O)(=O)c1c(-c2nc3cc(C(F)(F)F)ncc3n2C)nc2ccc(Cl)cn12 [Example I-4]", "ASSIGNED_CATEGORY": "F"}
{"COMPOUND": "CCSc1c(-c2nc3cc(C(F)(F)F)ncc3n2C)nc2c(C(F)(F)F)cccn12 [Example I-13]", "ASSIGNED_CATEGORY": "F"}
{"COMPOUND": "CCSc1c(-c2nc3cc(C(F)(F)F)ccc3n2C)nc2ccc(C(F)(F)F)cn12 [Example I-28]", "ASSIGNED_CATEGORY": "T"}
{"COMPOUND": "CCS(=O)(=O)c1c(-c2nc3cc(C(F)(F)F)ccc3n2C)nc2cc(C(F)(F)F)ccn12 [Example I-34]", "ASSIGNED_CATEGORY": "T"}
{"COMPOUND": "CC[S+]([O-])c1c(-c2nc3cc(C(F)(F)F)ncc3n2C)nc2c(C(F)(F)F)cccn12 (centres unmarked) [Example I-25]", "ASSIGNED_CATEGORY": "T"}
{"COMPOUND": "CCSc1c(-c2nc3cc(C(F)(F)F)ncc3n2C)nc2ccc(C(F)(F)F)cn12 [Example I-5]", "ASSIGNED_CATEGORY": "T"}
{"COMPOUND": "CCS(=O)(=O)c1c(-c2nc3cc(C(F)(F)F)ncc3n2C)nc2cc(Cl)ccn12 [Example I-23]", "ASSIGNED_CATEGORY": "F"}
{"COMPOUND": "CCS(=O)(=O)c1c(-c2nc3cc(C(F)(F)F)ccc3n2C)nc2cccc(C)n12 [Example I-46]", "ASSIGNED_CATEGORY": "F"}
{"COMPOUND": "CCSc1c(-c2nc3cc(C(F)(F)F)ccc3n2C)nc2ccc(C)cn12 [Example I-38]", "ASSIGNED_CATEGORY": "T"}
{"COMPOUND": "CCSc1c(-c2nc3cc(C(F)(F)F)cnc3o2)nc2cccc(C(F)(F)F)n12 [Example I-57]", "ASSIGNED_CATEGORY": "T"}
{"COMPOUND": "CCS(=O)(=O)c1c(-c2nc3cc(C(F)(F)F)cnc3o2)nc2cc(C(F)(F)F)ccn12 [Example I-49]", "ASSIGNED_CATEGORY": "T"}
{"COMPOUND": "CCSc1c(-c2nc3cc(C(F)(F)F)cnc3n2C)nc2ccccn12 [Example I-52]", "ASSIGNED_CATEGORY": "T"}

Data origin: patent US10188108B2
